Tested on: AKT2
Conditions: concentration: 1 μM, replicates: in singlicate; n = 1;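 note: KINOMEscan kinase panel screen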
observable: %Inh (%)
Express the result in % but write the number alone.

CC[C@@H]1CO[C@H](C(=O)Nc2ccccc2)CN1c1cc(-c2ccc3c(N)n[nH]c3c2)nc(NC)n1 | 15
CNc1cc(-c2ccc3c(N)n[nH]c3c2)nc(N)n1 | 0
COc1ccc(Nc2nccc(N3CCC(NC(=O)c4cc5ccccc5s4)C3)n2)cc1 (centres unmarked) | 5
CC(=O)c1cccc(NC(=O)NC2CCN(c3ccnc(Nc4ccc(F)cc4)n3)C2)c1 (centres unmarked) | 2
Cn1cnc2c(N)ncnc21 | 0

Quick note, %Inh for O=c1cc(N2CCOCC2)nc2n(Cc3ccccc3F)ccn12 landed at 0

Quick note, %Inh for NS(=O)(=O)c1cccc(N/C=C2\C(=O)Nc3ccc(S(=O)(=O)Cc4c(Cl)cccc4Cl)cc32)c1 landed at 25

Quick note, %Inh for CS(=O)(=O)Cc1ccc(Nc2nccc(-c3c(-c4cccc(NC(=O)C5CCCCC5)c4)nn4ncccc34)n2)cc1 landed at 4

Quick note, %Inh for O=C1NC(=O)C(c2ccc(Cl)cc2)=C1Nc1ccc(O)cc1 landed at 0

Quick note, %Inh for COc1ccc(CSc2nnc(-c3ccc4ncsc4c3)o2)cc1C(F)(F)F landed at 4

Quick note, %Inh for COc1ccc(CSc2nnc(-c3ccc4nccn4c3)o2)cc1C(F)(F)F landed at 4

---

System: FGFR1
Details: concentration: 1 μM, replicates: in singlicate; n = 1
This listing pairs compounds with measured %Inh.
Express the result in % but write the number alone.

Before answering, review these 5 worked examples.
CNc1cc(-c2ccc3c(N)n[nH]c3c2)nc(N)n1 | 0
COc1ccc(Nc2nccc(NCCNC(=O)Nc3cc(C)ccc3C)n2)cc1 | 11
Cc1c(Cn2c(C)c(C)n3c(=O)cc(N4CCOCC4)nc23)cccc1C(F)(F)F | 0
Cc1ccc(NC(=O)Nc2ccccc2F)cc1-c1ccc(C(=O)Nc2ccncc2)cc1 | 19
Cc1cccc2c(-c3ccncn3)c(-c3ccc(F)cc3)nn12 | 15

Now look at this one.
Quick note, %Inh for CS(=O)(=O)Cc1ccc(Nc2nccc(-c3c(-c4cccc(NC(=O)C5CCCCC5)c4)nn4ncccc34)n2)cc1 landed at 0

---

System: HIPK3
Conditions: concentration: 1 μM, replicates: in singlicate; n = 1
This listing pairs compounds with measured %Inh.
Express the result in % but write the number alone.

Before answering, review these 2 worked examples.
CCCCc1nn2ncccc2c1-c1ccnc(NC2CC2)n1 [GW684374] | 8
CNc1nc(-c2ccc3c(N)n[nH]c3c2)cc(N2C[C@@H](C(=O)NC3CCCCC3)OC[C@H]2C)n1 [GSK2375584] | 2

Now look at this one.
Quick note, %Inh for CC(=O)c1cccc(NC(=O)NC2CCN(c3ccnc(Nc4ccc(F)cc4)n3)C2)c1 (stereo not drawn) [GSK1379710] landed at 7

---

System: MLK1
Construct: gene MAP3K9
Details: concentration: 1 μM, replicates: in singlicate; n = 1
This listing pairs molecules with measured %Inh.
Express the result in % but write the number alone.

Before answering, review these 5 worked examples.
COc1ccc(Nc2nccc(N3CCC(NC(=O)c4cc5ccccc5s4)C3)n2)cc1 (centres unmarked) [GSK1379738] | 0
COc1ccc(CSc2nnc(-c3ccc4c(c3)CCO4)o2)cc1 | 0
COc1ccc(Nc2nccc(NCCNC(=O)Nc3cc(C)ccc3C)n2)cc1 [GSK1379899] | 0
COc1cccc(NC(=O)Nc2ccc(C)c(-c3ccc(C(=O)Nc4ccncc4)cc3)c2)c1 [GSK1398474] | 10
Cc1ccc(NC(=O)c2ccc(Cl)cc2)cc1-c1ccc(C(=O)Nc2ccncc2)cc1 [GSK1398467] | 0

Quick note, %Inh for O=C1NC(=O)C(c2ccc(Cl)cc2)=C1Nc1ccc(O)cc1 [SB-340867] landed at 0

Quick note, %Inh for CN1c2ccc(-c3ccc(C(N)=O)cc3)cc2-c2[nH]ncc2S1(=O)=O landed at 19

Quick note, %Inh for Nc1ncnc2occ(-c3ccc4c(c3)CCN4C(=O)Cc3cc(F)ccc3F)c12 [GSK2645446] landed at 0

Quick note, %Inh for CCn1c(-c2c(N)noc2C)nc2cnccc21 [SB-737856] landed at 0
